# System: bovine cardiac myofibrils
# assayInfo: Myofibril assay (ATPase activity of skinned bovine cardiac myofibrils, PK/LDH-coupled)
# Format: biochemical
# conditionParameters: inhibition of steady-state ATPase of bovine cardiac myofibrils; CaCl2 for 50% or 75% activation
Measured CDMF IC15 of individual entries
Your answer is read as nM, so omit the unit and give the number.

C[C@H]1CC[C@H](N2CC(=O)N(Cc3ccc(Cl)cc3)C3(CN(c4cccnn4)C3)C2=O)CC1 ... 300
CC[C@H]1CC[C@H](N2CC(=O)N(Cc3ccc(Cl)cc3)C3(CN(C(N)=O)C3)C2=O)CC1 ... 800
CC[C@H]1CC[C@H](N2CC(=O)N(Cc3ccc(F)cc3)C3(CN(C(N)=O)C3)C2=O)CC1 ... 2100
C[C@H]1CC[C@H](N2CC(=O)N(Cc3ccc(Cl)cc3)C3(CN(C(N)=O)C3)C2=O)CC1 ... 1200
CC(C)N1CC(=O)N(Cc2ccc(Cl)c(F)c2)C2(CN(c3cccnn3)C2)C1=O ... 1300
CC[C@H](C)N1CC(=O)N(Cc2ccc(F)c(F)c2)C2(CN(c3cccnn3)C2)C1=O ... 1300

Let us examine a further case.
// CDMF IC15 lookup, compound = CCC(CC)N1CC(=O)N(Cc2ccc(F)c(F)c2)C2(CN(c3cccnn3)C2)C1=O , result: 1400

* * *

# targetDesc: CYP2B6 (Homo sapiens)
# Construct: Pooled human microsomes and selective CYP probe substrates were used; from tissue; host or cells: pooled human liver microsomes
# Sequence (P20813 1-491): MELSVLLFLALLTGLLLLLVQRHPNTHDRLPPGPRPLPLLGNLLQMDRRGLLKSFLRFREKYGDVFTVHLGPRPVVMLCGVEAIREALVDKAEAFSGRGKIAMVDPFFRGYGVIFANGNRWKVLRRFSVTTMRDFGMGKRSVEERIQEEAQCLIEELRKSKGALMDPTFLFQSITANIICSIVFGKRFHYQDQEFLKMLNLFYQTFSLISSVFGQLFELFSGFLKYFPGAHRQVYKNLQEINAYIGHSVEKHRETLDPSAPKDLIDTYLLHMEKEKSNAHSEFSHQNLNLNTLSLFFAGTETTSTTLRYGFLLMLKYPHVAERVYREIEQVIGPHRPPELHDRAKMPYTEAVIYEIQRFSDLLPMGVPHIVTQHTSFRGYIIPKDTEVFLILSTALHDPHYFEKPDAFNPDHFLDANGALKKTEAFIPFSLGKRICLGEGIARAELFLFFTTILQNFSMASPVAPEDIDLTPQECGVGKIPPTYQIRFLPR
# assayInfo: Time-dependent inhibition of CYP2B6 in human liver microsomes
# Assay type: in vitro ADME
# conditionParameters: pooled human liver microsomes; CYP2B6, 25 μM, human liver microsomes, after 30 minutes incubation; read-out: % Activity NADPH T30
measurementKind: activity at 30 min, 25 µM (%)
A number alone suffices; assume %.

Look over these answered cases.
C[C@H]1CC[C@H](N2CC(=O)N(Cc3ccc(Cl)cc3)C3(CN(C(N)=O)C3)C2=O)CC1 ... 103
Cc1cc(CN2C(=O)CN([C@H]3CC[C@H](C)CC3)C(=O)C23CN(C(N)=O)C3)ccc1F ... 83
CC(C)N1CC(=O)N(Cc2ccc(C(F)(F)F)cc2)C2(CN(c3cccnn3)C2)C1=O ... 116
C[C@H]1CC[C@H](N2CC(=O)N(Cc3ccc(F)c(Cl)c3)C3(CN(C(N)=O)C3)C2=O)CC1 ... 74

# next molecule below
Short answer for C[C@H]1CC[C@H](N2CC(=O)N(Cc3ccc(F)c(F)c3)C3(CN(C(N)=O)C3)C2=O)CC1 : activity at 30 min, 25 µM was 78

The origin of these recorded values is patent US12286437B2.
